thermal shift delta Tm listing for selected compounds.
# System: LOC_OS01G21960-cb002
# assay name: thermal shift delta Tm vs DMSO control; higher = stronger stabilization (binding);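 also: purified Escherichia coli-expressed rice kinase domain construct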
# study conditions: 12.5 µM; protein concentration 2 µM
Structures can show the parent of a compound that is named as a salt.
Record the result as a number with its unit.

Here are 4 compounds together with their reported answers.
CC(C)n1nc(-c2ccc3oc(N)nc3c2)c2c(N)ncnc21 = 0.3 °C
CN(C)Cc1cccc(N/C(=C2\C(=O)Nc3cc(C(N)=O)ccc32)c2ccccc2)c1 = 0.45 °C
CNS(=O)(=O)Nc1nccc(Cc2c(C)c3ccc(Oc4ncccn4)cc3oc2=O)c1F = 0.68 °C
Cc1cc(O)c(-c2ccc([C@@H](C)CN)cc2)c2c1[nH]c(=O)c1sccc12 [OTS514 hydrochloride] = 1.5 °C

Now for the compound whose thermal shift delta Tm we want.
Query: Any idea what thermal shift delta Tm was measured for COc1cc2c(Oc3ccc4[nH]c(C)cc4c3F)ncnc2cc1OCCCN1CCCC1 ?
Result: 0.39 °C

----------
Quick reference: thermal shift delta Tm of the listed items.
# Test system: LOC_OS02G07810-cb001
# assay name: thermal shift delta Tm vs DMSO control; higher = stronger stabilization (binding)
# study conditions: 12.5 µM; protein concentration 2 µM
Where a name gives a salt, the structure may show the parent alone.
Kindly answer with a numeric value in °C, unit omitted.

OC(c1cc(-c2ccc(Cl)cc2)nc2ccccc12)C1CCCCN1 (centres undefined) = 0.67

Query: Item under review: CNC(=O)c1ccccc1Nc1nc(Nc2ccc(N3CCOCC3)cc2OC)ncc1Cl . Reported thermal shift delta Tm?
Result: 0.19

Query: What measured thermal shift delta Tm goes with CNc1nc(Nc2cn(C(C)(C)C#N)nc2C)ncc1C(F)(F)F ?
Result: 0.4

Query: Which measured thermal shift delta Tm value corresponds to COc1cc(OC)cc(N(CCNC(C)C)c2ccc3ncc(-c4cnn(C)c4)nc3c2)c1 ?
Result: -0.54

Query: Fill blank: measured thermal shift delta Tm of the compound CCn1c(-c2nonc2N)nc2c(C#CC(C)(C)O)ncc(OC[C@H]3CCCNC3)c21 is ____.
Result: 0.56

Query: Given the entry C[C@H]1CNCCCN1S(=O)(=O)c1cccc2cncc(F)c12 [Ripasudil (K-115) hydrochloride dihydrate] , report its measured thermal shift delta Tm.
Result: 1.1

Query: Looking for the measured thermal shift delta Tm of COc1cc2c(c(OC)c1OC)-c1c(cc3c(c1OC)OCO3)CC(C)C(C)C2 (centres undefined) [Schisandrin B (Sch B)] , can you help?
Result: 0.64

Query: Recorded thermal shift delta Tm for COc1ccc(-c2ccc3c(N4CCOCC4)nc(N4C[C@@H](C)O[C@@H](C)C4)nc3n2)cc1CO , please?
Result: 0.61

Query: Given the compound CNC(=O)c1cc(Oc2ccc3nc(N[C@@H]4CCCC[C@H]4O)sc3c2)ccn1 , what is its reported thermal shift delta Tm?
Result: 0.97

----------
# System: LOC_OS04G57630-cb004
# assay name: thermal shift delta Tm vs DMSO control; higher = stronger stabilization (binding)
# study conditions: 12.5 µM; protein concentration 2 µM
value kind: thermal shift delta Tm (°C)
# output: bare number, implied unit °C

C=CC(=O)Nc1cccc(Nc2nc(Nc3ccc(OCCOC)cc3)ncc2F)c1 = 3.06
C=CC(=O)Nc1ccc2ncnc(Nc3ccc(OCc4cccc(F)c4)c(Cl)c3)c2c1 = 2.39
C[C@@]1(C(=O)Nc2ccc(F)nc2)CCCN1c1nc(Nc2cc(C3CC3)n[nH]2)c2cccn2n1 = 0.45
C[C@H]1CNC(=O)c2cnn3ccc(nc23)N[C@H](C)c2cc(F)ccc2O1 = 1.68
Cc1cc(Nc2ncnc3ccc(-c4ccc(CNCCS(C)(=O)=O)o4)cc23)ccc1Oc1ccn2ncnc2c1 = 2.09
O=c1c(O)c(-c2cc(O)c(O)c(O)c2)oc2cc(O)cc(O)c12 = 0.92

Query: Param readout= thermal shift delta Tm; system= LOC_OS04G57630-cb004; entry= CO[C@H]1C[C@@H]2CC[C@@H](C)[C@@](O)(O2)C(=O)C(=O)N2CCCC[C@H]2C(=O)O[C@H]([C@H](C)C[C@@H]2CC[C@@H](OCCO)[C@H](OC)C2)CC(=O)[C@H](C)/C=C(\C)[C@@H](O)[C@@H](OC)C(=O)[C@H](C)C[C@H](C)/C=C/C=C/C=C/1C [Everolimus (RAD001)] ; returns value.
Result: -0.03

Query: Form field - read-out: thermal shift delta Tm; system: LOC_OS04G57630-cb004; submitted item: FC(F)(F)c1ccc(Nc2nc3ccc(Oc4ccnc(-c5ncc(C(F)(F)F)[nH]5)c4)cc3[nH]2)cc1
Result: 1.36
